# reported % Ctrl, EGFR(L858R); entries follow
# tgt: kinases (Homo sapiens, UniProt P00533, L858R)
# Construct: purchased Eurofins/DiscoveRx; host or cells: E. coli BL21-derived host (T7 phage display) for most kinases; HEK-293 for the rest
# method summary: KINOMEscan kinase binding assay (Eurofins/DiscoveRx), % Ctrl
# setup conditions: target EGFR(L858R); 1 μM
quantity name: % Ctrl, EGFR(L858R) (% Ctrl)

>>> endpoint_result("Cc1cc2c([nH]1)/C=C1\\C(=O)Nc3ccc(cc31)-c1c(noc1C)CNCCN(C)C2=O")
80
>>> endpoint_result("CN1CCSCCOc2cc3c(cc2Cl)NC(=O)/C3=C\\c2[nH]ccc2C1=O")
86
>>> endpoint_result("Cc1cc2c([nH]1)/C=C1\\C(=O)Nc3ccc(cc31)-c1c(C)nn(C)c1COCCN(C)C2=O")
88
>>> endpoint_result("Cc1nn(C)c2c1-c1ccc3c(c1)/C(=C/c1[nH]ccc1C(=O)N(C)CCCO2)C(=O)N3")
77
>>> endpoint_result("CN1CCOCCOc2cc3c(cc2Cl)NC(=O)/C3=C\\c2[nH]ccc2C1=O")
86
>>> endpoint_result("Cc1cc2c([nH]1)/C=C1\\C(=O)Nc3cc(Cl)c(cc31)OCCO[C@@H](C(=O)N1CCN(C)CC1)CN(C)C2=O")
78
>>> endpoint_result("Cc1cc2c([nH]1)/C=C1\\C(=O)Nc3cnc(cc31)-c1cn[nH]c1CNCCN(C)C2=O")
88

---

# tgt: kinases (Homo sapiens, UniProt P36888, N841I)
# Construct: purchased Eurofins/DiscoveRx; host or cells: E. coli BL21-derived host (T7 phage display) for most kinases; HEK-293 for the rest
# method summary: KINOMEscan kinase binding assay (Eurofins/DiscoveRx), % Ctrl
# setup conditions: target FLT3(N841I); 1 μM
quantity name: % Ctrl, FLT3(N841I) (% Ctrl)

>>> endpoint_result("CN1CCSCCOc2cc3c(cc2Cl)NC(=O)/C3=C\\c2[nH]ccc2C1=O")
0
>>> endpoint_result("CN1CCOCCOc2cc3c(cc2Cl)NC(=O)/C3=C\\c2[nH]ccc2C1=O")
5.5
>>> endpoint_result("Cc1cc2c([nH]1)/C=C1\\C(=O)Nc3cnc(cc31)-c1cn[nH]c1CNCCN(C)C2=O")
0

---

# tgt: kinases (Homo sapiens, UniProt P00519, F317L)
# Construct: purchased Eurofins/DiscoveRx; host or cells: E. coli BL21-derived host (T7 phage display) for most kinases; HEK-293 for the rest
# Sequence (P00519 whole entry F317L): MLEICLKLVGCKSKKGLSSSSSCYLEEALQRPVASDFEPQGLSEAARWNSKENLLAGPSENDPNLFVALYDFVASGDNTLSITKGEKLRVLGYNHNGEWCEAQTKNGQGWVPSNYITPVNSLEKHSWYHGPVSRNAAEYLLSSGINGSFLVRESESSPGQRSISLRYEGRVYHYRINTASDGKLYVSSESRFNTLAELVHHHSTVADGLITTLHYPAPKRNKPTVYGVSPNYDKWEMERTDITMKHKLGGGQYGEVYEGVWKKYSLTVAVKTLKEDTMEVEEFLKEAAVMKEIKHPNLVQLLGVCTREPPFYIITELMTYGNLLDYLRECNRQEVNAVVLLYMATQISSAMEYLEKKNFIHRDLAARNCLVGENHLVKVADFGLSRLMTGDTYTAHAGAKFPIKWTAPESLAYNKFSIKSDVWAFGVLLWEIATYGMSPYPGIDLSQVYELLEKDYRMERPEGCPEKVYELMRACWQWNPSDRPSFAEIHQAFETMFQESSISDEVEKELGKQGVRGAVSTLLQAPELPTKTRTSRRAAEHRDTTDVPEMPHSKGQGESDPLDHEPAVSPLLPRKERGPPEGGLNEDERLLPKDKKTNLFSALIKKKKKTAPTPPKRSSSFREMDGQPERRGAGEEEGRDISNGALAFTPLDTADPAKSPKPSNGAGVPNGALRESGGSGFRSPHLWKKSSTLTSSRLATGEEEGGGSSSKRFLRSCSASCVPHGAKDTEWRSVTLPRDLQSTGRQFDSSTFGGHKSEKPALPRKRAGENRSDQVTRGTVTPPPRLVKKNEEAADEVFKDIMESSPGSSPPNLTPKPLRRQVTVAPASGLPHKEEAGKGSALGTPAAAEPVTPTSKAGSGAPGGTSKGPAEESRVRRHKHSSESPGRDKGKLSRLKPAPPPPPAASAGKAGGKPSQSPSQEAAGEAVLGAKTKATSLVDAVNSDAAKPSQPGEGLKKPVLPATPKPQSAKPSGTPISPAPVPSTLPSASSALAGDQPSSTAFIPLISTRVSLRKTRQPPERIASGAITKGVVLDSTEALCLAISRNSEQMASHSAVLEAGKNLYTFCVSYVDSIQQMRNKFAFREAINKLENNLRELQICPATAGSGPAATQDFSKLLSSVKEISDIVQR
# method summary: KINOMEscan kinase binding assay (Eurofins/DiscoveRx), % Ctrl
# setup conditions: 1 μM; target ABL1(F317L)-phosphorylated
quantity name: % Ctrl, ABL1(F317L)-phosphorylated (% Ctrl)

>>> endpoint_result("Cc1cc2c([nH]1)/C=C1\\C(=O)Nc3ccc(cc31)-c1cnn(C)c1OCCCN(C)C2=O")
8.7
>>> endpoint_result("Cc1cc2c([nH]1)/C=C1\\C(=O)Nc3ccc(cc31)-c1c(noc1C(C)C)COCCN(C)C2=O")
94
>>> endpoint_result("Cc1cc2c([nH]1)/C=C1\\C(=O)Nc3cnc(cc31)-c1cnn(C)c1CN(C)CCN(C)C2=O")
1.9
>>> endpoint_result("CN1CCOc2cc3c(cc2Cl)NC(=O)/C3=C\\c2[nH]ccc2C(=O)N(C)CC1")
1.3
>>> endpoint_result("Cc1cc2c([nH]1)/C=C1\\C(=O)Nc3cc(Cl)c(cc31)SCCOCCN(C)C2=O")
0.1

Numbers sourced from patent US20230257396A1.
